# experiment summary: solvent given as SMILES
# test settings: in ClCCl
Sorting guide: entries reporting fluorescence lifetime beneath 0.9 ns go in the TRUE pile, the rest go in the FALSE pile.

INPUT: Dear colleague, could you confirm whether fluorescence lifetime of CCCCC(CC)COc1ccc2nc(-c3ccc(-c4c(C)noc4C)s3)sc2c1 (configuration not stated) falls below 0.9 ns? Thanks.
OUTPUT: FALSE

INPUT: Please let me know if Cc1ccc(O)c(-c2nc(C)c3n2CCCC3)c1 shows fluorescence lifetime below 0.9 ns.
OUTPUT: FALSE

INPUT: I wonder whether COc1ccc(/C=C/C2=CC(/C=C/c3ccc(OC)cc3)=[O+][B-](OC(C)=O)(OC(C)=O)O2)cc1 has fluorescence lifetime below 0.9 ns. Can you tell?
OUTPUT: FALSE

INPUT: I wonder whether CC(=O)O[B-]1(OC(C)=O)OC(/C=C/c2cccc3ccccc23)=CC(/C=C/c2cccc3ccccc23)=[O+]1 has fluorescence lifetime below 0.9 ns. Can you tell?
OUTPUT: FALSE

INPUT: hey, is fluorescence lifetime for Cc1nc(-c2cc(N)ccc2O)n2c1CCCC2 lower than 0.9 ns or not?
OUTPUT: TRUE

INPUT: Please let me know if CCOC(=O)/N=c1/oc2cc(OC)ccc2cc1C#N shows fluorescence lifetime below 0.9 ns.
OUTPUT: TRUE

INPUT: State whether 0.9 ns exceeds fluorescence lifetime recorded for COC(=O)c1cc(=O)n(Cc2ccccc2)c2cc(-c3ccc(OC)cc3)sc12 .
OUTPUT: FALSE

INPUT: is_below(fluorescence lifetime, 0.9 ns) for CCN(CC)c1ccc2cc(-c3ccc(-c4ccc(-c5cc6ccccc6oc5=O)cc4)cc3)c(=O)oc2c1 ?
OUTPUT: FALSE

INPUT: API: query returns whether the compound falls strictly under 0.9 ns in fluorescence lifetime. Query: c1ccc(N(c2ccccc2)c2ccc(-c3ccc4c(c3)C3(c5cc(-c6ccc(N(c7ccccc7)c7ccccc7)cc6)ccc5-4)c4ccccc4N(c4ccccc4)c4ccccc43)cc2)cc1
OUTPUT: FALSE

INPUT: Bench note: check whether CC(C)(C)c1ccc2c(c1)c1cc(C(C)(C)C)ccc1n2-c1ccc(C#Cc2ccc(C#Cc3ccc(C=C(C#N)C#N)cc3)cc2)cc1 shows fluorescence lifetime below 0.9 ns
OUTPUT: FALSE

INPUT: Is it true that fluorescence lifetime reported for COc1cccc2cc(C#N)c(=N)oc12 is less than 0.9 ns?
OUTPUT: TRUE

----------
Task for the reader: assign each of the following molecules its reported fluorescence lifetime.
# experiment summary: solvent given as SMILES
# test settings: in CCO
Give bare numbers, in ns.

molecule | fluorescence lifetime / ns
N#Cc1ncc(-c2c3ccccc3c(-c3cnc(C#N)nc3)c3ccccc23)cn1 | 1.8
Cc1cc(C)c2cc3cc(C)ncc3cc2c1 | 18
O=C(O)COc1ccc2[nH]c3c(c2c1)CCCC3=O | 1.52
C#CCN1C(=O)/C(=C/c2cc(OC(C)C)ccc2OC(C)C)N=C1C | 1
CCOC(=O)c1ccc(NC(=O)COc2cc3c4c([nH]c3c(C)c2C)C(=O)CCC4)cc1 | 1.26

List reported fluorescence lifetime for each of these molecules:
1. CCN(CC)c1ccc2c(C(F)(F)F)cc(=O)oc2c1
2. Cc1ccc(C2CC(c3ccc(O)cc3)=NN2c2ccc(S(N)(=O)=O)cc2)cc1 (configuration not stated)
3. N#Cc1cnc(-c2c3ccccc3c(-c3ccccc3)c3ccccc23)nc1

OUTPUT:
0.85
2.04
0.25

Each molecule below has a reported value. Please supply its fluorescence lifetime.
1. COc1ccc2c(c1)-c1cc(OC)ccc1C2=O
2. CN(C)c1c2ccccc2cc2ccccc12
3. Cn1cc(-c2nc3ccccc3nc2/C=C/N2CCCC2)c2ccccc21

OUTPUT:
0.8
5.1
0.75

INPUT: State the recorded fluorescence lifetime for this entry: Nc1ccc2c(c1)C(=O)NC2=O
OUTPUT: 10
